Exercise: state measured In vitro activity compared with native peptide (%) vs. GIP for each of the binders provided.
- target.desc: T1, human GIP receptor (human, UniProt P48546 22-466)
- T1 sequence (looked up): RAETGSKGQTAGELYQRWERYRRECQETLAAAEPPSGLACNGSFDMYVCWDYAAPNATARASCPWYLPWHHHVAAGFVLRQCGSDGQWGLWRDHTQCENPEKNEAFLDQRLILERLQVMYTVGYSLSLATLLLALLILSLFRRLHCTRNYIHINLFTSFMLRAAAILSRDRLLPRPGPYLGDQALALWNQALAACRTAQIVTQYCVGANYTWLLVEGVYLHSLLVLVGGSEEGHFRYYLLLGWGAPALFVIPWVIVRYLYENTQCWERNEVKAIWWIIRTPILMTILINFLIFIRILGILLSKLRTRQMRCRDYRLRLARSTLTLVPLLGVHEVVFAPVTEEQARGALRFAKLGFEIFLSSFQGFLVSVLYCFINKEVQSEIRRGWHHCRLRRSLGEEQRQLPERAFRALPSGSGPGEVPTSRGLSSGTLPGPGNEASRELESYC
- protocol: cell-based or functional assay
Bridges are numbered along the chain shown (N, C = ends). Where no end group is shown, it is not given here. [ ]: non-standard residue; d: D form. The star is where a group is joined. Acetyl(2-(4-imidazolyl)) = O=C(Cc1c[nH]cn1)*; Aib = CC(C)(N)C(=O)O

# input Data request, read-out In vitro activity compared with native peptide (%) vs. GIP, for {Acetyl(2-(4-imidazolyl))}-GQGTFTSDLSKQMDEERAREFIEWLLAQKPSSGAPPPSHG [Triple agonist of SEQ ID NO: 17]
# output < 0.1%

# input Can you look up the measured In vitro activity compared with native peptide (%) vs. GIP of H[Aib]QGTFTSDKSKYLDERACQDFVQWLLDGGPSSGAPPPS [Triple agonist of SEQ ID NO: 40] for me?
# output < 0.1%

# input Can you look up the measured In vitro activity compared with native peptide (%) vs. GIP of Y[Aib]QGTFTSDYSKYLDECRAKEFVQWLLAQKGKKNDWKHNIT (bridge 16-20) [Triple agonist of SEQ ID NO: 23] for me?
# output < 0.1%
